Listed here: items and their measured GI50.
System: SK-MEL-5 melanoma
protocol-notes: NCI tumour cell line growth inhibition, 48 h
measurement-kind: GI50

>  <smiles-record>
CCN(Cc1c(Cl)cccc1Cl)c1ccc(CO)c(Cl)c1

>  <measured-target>
SK-MEL-5 melanoma

>  <value-observed>
2860 nM

$$$$
>  <smiles-record>
O=C1C(Cl)=C(Nc2cccc(C(F)(F)F)c2)C(=O)N1Cc1ccc(Cl)cc1

>  <measured-target>
SK-MEL-5 melanoma

>  <value-observed>
621 nM

$$$$
>  <smiles-record>
CC(=O)[O-].O=C([CH-]C(=O)c1ccccc1)c1ccccc1.O=C([CH-]C(=O)c1ccccc1)c1ccccc1.[Sm+3]

>  <measured-target>
SK-MEL-5 melanoma

>  <value-observed>
1660 nM

$$$$
>  <smiles-record>
O=C(NC(=S)Nc1cc(Cl)ccc1O)c1cccc(Br)c1

>  <measured-target>
SK-MEL-5 melanoma

>  <value-observed>
6210 nM

$$$$

src = PubChem BioAssay (NCI)
